assayedTarget: Cytochrome P450 3A4 (Homo sapiens)
Sequence (P08684 whole entry): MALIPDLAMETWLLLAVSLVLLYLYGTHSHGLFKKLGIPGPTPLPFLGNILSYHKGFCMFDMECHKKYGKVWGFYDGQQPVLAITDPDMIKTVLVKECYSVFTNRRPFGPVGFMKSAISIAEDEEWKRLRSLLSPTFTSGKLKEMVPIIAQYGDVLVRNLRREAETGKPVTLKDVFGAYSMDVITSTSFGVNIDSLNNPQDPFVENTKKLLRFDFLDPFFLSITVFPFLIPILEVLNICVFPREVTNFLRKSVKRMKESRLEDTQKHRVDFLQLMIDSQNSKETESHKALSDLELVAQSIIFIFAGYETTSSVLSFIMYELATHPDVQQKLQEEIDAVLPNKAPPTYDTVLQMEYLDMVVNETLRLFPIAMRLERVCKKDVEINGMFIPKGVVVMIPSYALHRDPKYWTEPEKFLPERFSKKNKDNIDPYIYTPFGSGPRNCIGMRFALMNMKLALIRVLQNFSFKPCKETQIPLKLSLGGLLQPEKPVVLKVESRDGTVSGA
methodSummary: Inhibition of human hepatocyte microsome CYP3A4 using testosterone as substrate by HPLC/MS/MS method
Assay type: ADME
measuredParameter: pIC50
Lab note — pIC50 values are minus log10 of concentrations in M.

compound="COc1cc2ccc(C(O)(c3c[nH]cn3)C(C)C)cc2cc1OC (racemic)" measuredparameter=pIC50 readoutvalue=5.80
compound="COc1cc2ccc(C(O)(c3ccncc3)C(C)C)cc2cc1OC (racemic)" measuredparameter=pIC50 readoutvalue=5.35
compound="COc1cc2ccc(C(O)(c3cnco3)C(C)C)cc2cc1OC (racemic)" measuredparameter=pIC50 readoutvalue=5.19
compound="COc1cc2ccc(C(O)(c3cccnc3)C(C)C)cc2cc1OC (racemic)" measuredparameter=pIC50 readoutvalue=5.03

Turning now to a further record.
The compound listed as COc1cc2ccc(C(O)(c3c[nH]nn3)C(C)C)cc2cc1OC (racemic) shows pIC50 equal to 4.24
